Molecular target: T1, cynomolgus IGFBP7 recombinant protein (cynomolgus)
T1 chain: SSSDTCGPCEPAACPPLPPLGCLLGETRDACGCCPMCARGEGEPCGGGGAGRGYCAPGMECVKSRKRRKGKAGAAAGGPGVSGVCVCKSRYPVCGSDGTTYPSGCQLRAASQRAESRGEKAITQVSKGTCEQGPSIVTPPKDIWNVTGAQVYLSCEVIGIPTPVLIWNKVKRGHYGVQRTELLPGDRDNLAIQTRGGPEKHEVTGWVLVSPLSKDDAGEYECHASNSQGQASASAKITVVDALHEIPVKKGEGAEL
Experiment: BLI
In this section we review reported Kd values for a set of binders.
Give the number; nM is assumed, so skip it.

>  <binder>
A1-mIgG2a nanobody Fc-fusion (Fc fusion, VHH fused with mIgG2a Fc fragment, expressed in Expi293 cells, Protein G purified; also called monoclonal A1-mIgG2a; monospecific A1-mIgG2a; not shown: mouse IgG2a Fc fragment (mIgG2a Fc)) VQLQESGGGLVQAGGSLRLSCAASGSLFAIDKWGWYRQVAGNERELVAWRYSPVSINYGDSVKGRFTVSGDSSRKRVYLQMNSLKPDDTAVYRCAAVISGAWYWGQGTQVTVSS

>  <value measured>
2.41

$$$$

Turning now to a further binder:
[in] Need Kd of D4-mIgG2a nanobody Fc-fusion (Fc fusion, VHH fused with mIgG2a Fc fragment, expressed in Expi293 cells; also called monospecific D4-mIgG2a; not shown: mouse IgG2a Fc fragment (mIgG2a Fc)) VQLQESGGGLVQTGGSLRLSCAASGRSFTFSSYAMGWFRHAPGKEREFLTAITWSGDYTYYTDSVKGRSTISRDNAKNTVYLQLNNLKPEDTAVYYCAAKFSQVSAFFATVSEYEYWGQGTQVTVSS , thanks.
[out] 1.84
